# Test system: ANKK1;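 further: KINOMEscan kinase panel screen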
# CONDITION SET: concentration: 1 μM, replicates: in singlicate; n = 1
Each item that follows carries a reported %Inh.
Write the numeric value and append its unit.

Before answering, review these 4 worked examples.
Exercise: Recorded %Inh for CN(c1ccc(NC(=O)Nc2cc(C(F)(F)F)ccc2F)cc1)c1ccnc(Nc2ccc(S(N)(=O)=O)cc2)n1 [GW809893] , please?
Solution: 78%

Exercise: Recorded %Inh for COc1cc(Nc2nccc(N3CCC(NC(=O)c4cc5ccccc5s4)C3)n2)cc(OC)c1OC (stereo not shown) [GSK1379760] , please?
Solution: 12%

Exercise: Recorded %Inh for "Cn1cc(-c2[nH]c3cc(NC(=O)[C@H](N)C4CCCCC4)cc4c3c2C=NNC4=O)cn1" , please?
Solution: 95.7%

Exercise: Recorded %Inh for COc1ccc(Nc2nccc(NCCNC(=O)c3cc4ccccc4s3)n2)cc1 [GSK1379896] , please?
Solution: 6%

Continuing:
Exercise: Recorded %Inh for C[C@@H]1CC[C@@H](C(=O)Nc2ccccc2)CN1c1cc(-c2ccc3c(N)n[nH]c3c2)nc(N)n1 [GSK2286062] , please?
Solution: 3%

Exercise: Recorded %Inh for CN(C)S(=O)(=O)c1cc(-c2ccc3nccc(-c4cccc(S(N)(=O)=O)c4)c3c2)cnc1N [GSK1669921] , please?
Solution: 5%

Exercise: Recorded %Inh for COc1cc(Nc2nccc(N3CCC(NC(=O)Nc4cccc(C(C)=O)c4)C3)n2)cc(OC)c1OC (stereo not shown) [GSK1379753] , please?
Solution: 41%

Exercise: Recorded %Inh for CCCCc1nn2ncccc2c1-c1ccnc(Nc2ccc(N3CCN(C)CC3)cc2)n1 [GW684941] , please?
Solution: 0%

Exercise: Recorded %Inh for Cc1occc1-c1ncc(OC[C@@H](N)Cc2c[nH]c3ccccc23)cc1-c1ccc2[nH]nc(C)c2c1.O=C(O)C(F)(F)F [GSK682037] , please?
Solution: 0%

Exercise: Recorded %Inh for Cl.Cl.NCC(NC(=O)c1cc(-c2ccccc2)c(-c2ccnc3[nH]ccc23)s1)c1ccccc1 (stereo not shown) [GSK1321561] , please?
Solution: 0%
